system: mouse Mcl-1 with truncations of 151 amino acid residues at its N-terminus and 23 residues at its C-terminus (mouse) (UniProt P97287)
Sequence (P97287 152-308): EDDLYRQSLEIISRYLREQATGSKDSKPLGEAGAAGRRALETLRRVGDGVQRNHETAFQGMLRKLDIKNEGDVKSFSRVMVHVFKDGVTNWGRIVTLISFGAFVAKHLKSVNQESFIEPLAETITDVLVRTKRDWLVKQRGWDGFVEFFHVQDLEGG
assay_remarks: competition phage ELISA
No end group written: not given here. FLAG = FLAG tag
Fold/wt values for the binders below.
endpoint: Fold/wt (fold)

{"binder": "PSSTMGQVGRQLAIIGDDIARRYDSE [Bak BH3 N20A, phage-displayed]", "endpoint": "Fold/wt", "result_value": 1}
{"binder": "{FLAG}-RAELPPEFAAALRKIGDKVYCTWSAP-{GGGT-g3(249-406)} [mNoxaA BH3 Q11A, phage-displayed]", "endpoint": "Fold/wt", "result_value": 1}
{"binder": "RAELPPEFAAQLRKIGDKVYCTWSAP-{GGGT-g3(249-406)} (not fully specified (N-terminus)) [mNoxaA BH3 wild type, phage-displayed]", "endpoint": "Fold/wt", "result_value": 1}
{"binder": "PSSTMGQVGRQLAIIGDDANRRYDSE [Bak BH3 I19A, phage-displayed]", "endpoint": "Fold/wt", "result_value": 9}
{"binder": "RAELPPEFAAQLRKIGDKVACTWSAP-{GGGT-g3(249-406)} (not fully specified (N-terminus)) [mNoxaA BH3 Y20A, phage-displayed]", "endpoint": "Fold/wt", "result_value": 1}
{"binder": "{FLAG}-RAELPPAFAAQLRKIGDKVYCTWSAP-{GGGT-g3(249-406)} [mNoxaA BH3 E7A, phage-displayed]", "endpoint": "Fold/wt", "result_value": 1}
{"binder": "PSSTMGQAGRQLAIIGDDINRRYDSE [Bak BH3 V8A, phage-displayed]", "endpoint": "Fold/wt", "result_value": 4}
{"binder": "PSSTMGQVGRQLAIIGDDINRRADSE [Bak BH3 Y23A, phage-displayed]", "endpoint": "Fold/wt", "result_value": 6}
{"binder": "{FLAG}-RAALPPEFAAQLRKIGDKVYCTWSAP-{GGGT-g3(249-406)} [mNoxaA BH3 E3A, phage-displayed]", "endpoint": "Fold/wt", "result_value": 1}
{"binder": "QEAIIRNIARHLAQVGDSMDRSIPPG [Bid BH3 D3A, phage-displayed]", "endpoint": "Fold/wt", "result_value": 1}
{"binder": "QEDAIRNIARHLAQVGDSMDRSIPPG [Bid BH3 I4A, phage-displayed]", "endpoint": "Fold/wt", "result_value": 1}
{"binder": "PSSTMGQVGRQLAIIGDDINRAYDSE [Bak BH3 R22A, phage-displayed]", "endpoint": "Fold/wt", "result_value": 1}
